assay: Pharmacokinetics of LNK-754-TS in mice, oral; type: in vivo, mouse; details: C57BL/6, mouse, in vivo, po, 9 mg/kg, Group 5 (9 mg/kg SID), C57BL/6 mice, oral
measurement-kind: AUC(0-inf) (ng·h/mL)
Write down the numeric answer in ng·h/mL and omit the unit.

Q: Give a short answer stating reported AUC(0-inf) for `C#Cc1cccc(-c2cc(=O)n(C)c3ccc([C@](O)(c4ccc(Cl)cc4)c4cncn4C)cc23)c1` .
Result: 752

---

Test: Pharmacokinetics of LNK-754-TS in mice, oral
Type: in vivo, mouse
Conditions: C57BL/6, mouse, in vivo, po, 9 mg/kg, Group 5 (9 mg/kg SID), C57BL/6 mice, oral
Experimental: In the experimental data represented in Table 2A, a different method of drug delivery is used (oral) than in the experiment represented in FIG. 3. […] We can compare the calculated AUC values for the continuous infusion oncology study presented in FIG. 3 and the AUC values associated with the synuclein model doses in the table. […] The pharmacokinetic profiles of LNK-754-TS and Zarnestra® were analyzed using methods known in the art. […]
measurement-kind: Cmax (ng/mL)
Write down the numeric answer in ng/mL and omit the unit.

Q: Give a short answer stating reported Cmax for `C#Cc1cccc(-c2cc(=O)n(C)c3ccc([C@](O)(c4ccc(Cl)cc4)c4cncn4C)cc23)c1` .
Result: 318

Each recorded value in this set is attributed to patent US20100331363A1.
